- assay_explanation: Intrinsic clearance in human liver microsomes
- Format: ADME, Microsome
- condition_parameters: read-out: CLH
One threshold, 80 µL/min/mg, splits the recorded microsomal CLint values: lower ones are YES, equal or higher ones are NO.

{"compound": "CC(=O)N[C@@H](Cc1ccccc1)[C@H](O)CNC1CC(C)(C)Cc2nn(CC(C)(C)C)cc21 (mixture of isomers)", "label_value": "YES"}
{"compound": "CC(=O)N[C@@H](Cc1ccccc1)[C@H](O)CN[C@H]1CC(C)(C)Cc2nn(CC(C)C)cc21", "label_value": "YES"}
{"compound": "CC(=O)N[C@@H](Cc1ccccc1)[C@H](O)CN[C@H]1CC(C)(C)Oc2ccc(CC(C)(C)C)cc21", "label_value": "NO"}

[ask] Hello, is microsomal CLint of the following compound strictly smaller than 80 µL/min/mg? CC(=O)N[C@@H](Cc1ccccc1)[C@H](O)CNC1CC(C)(C)Cc2[nH]c(CC(C)(C)C)nc21 (mixture of isomers)
[reply] YES

[ask] Hello, is microsomal CLint of the following compound strictly smaller than 80 µL/min/mg? CC(=O)N[C@@H](Cc1ccccc1)[C@H](O)CN[C@H]1CC(C)(C)Cn2nc(CC(C)(C)C)cc21
[reply] YES
